Reported z-score by item:
protocol notes: DUSP6 inhibitors restoring Erk phosphorylation by chemical complementation, primary imaging in DUSP6-transfected HeLa (AID 609)
condition set: HeLa MKP-3 transfected, phospho-Erk imaging KS statistic; measured here: nuclear c-Myc green intensity z-score; at 10 µM; cells stimulated with TPA for 15 min

{"compound": "Cc1c2c([n+]3n1CCC3)CC(C)(C)CC2=O", "z-score": 1.36}
{"compound": "O=C(CC(c1ccc(F)cc1)c1ccco1)N1CCCC1 (stereo unspecified)", "z-score": 0.895}
{"compound": "COCc1n[nH]c(=S)n1-c1cccc2ccccc12", "z-score": 0.388}
{"compound": "CC(=O)N(Cc1ccccc1)c1ccc(C(=O)O)cc1", "z-score": 0.905}
{"compound": "Cn1c(NCc2cccnc2)nc2c1c(=O)n(Cc1ccccc1F)c(=O)n2C", "z-score": -0.869}
{"compound": "Cc1ccc(N2C(=O)CC3(CC4C=CC3C4)C2=O)cc1 (stereo unspecified)", "z-score": -0.359}
{"compound": "CCOC(=O)c1[nH]c2ccc(OC)cc2c1NC(=O)CCN1CCCC(C)C1 (stereo unspecified)", "z-score": -0.411}
{"compound": "Cc1nc(NCCCO)c(C#N)c2c1COC(C)(C)C2", "z-score": -0.435}
{"compound": "COc1ccc(CSC2=NCCN2)cc1Cl", "z-score": 2.09}
{"compound": "C/C(NC(=O)c1cccs1)=C1\\C(=O)C[C@@H]2[C@H]1C2(C)C", "z-score": -0.0395}
{"compound": "COc1cc(C)nc(Nc2nc(C)c(C(C)=O)s2)n1", "z-score": -1.71}
{"compound": "CSc1nc2[nH]c3c(c2c2nncn12)CC(C)(C)OC3", "z-score": 0.54}
{"compound": "Cc1c(O)c(CN2CCCC2)cc2c1oc(=O)c1ccccc12", "z-score": 0.189}
{"compound": "CC(C)CN1C(=O)c2ccc(C(=O)Nc3ccccn3)cc2C1=O", "z-score": 1.32}
{"compound": "COc1ccc(N2C(=O)CC(N(Cc3ccc(S(N)(=O)=O)cc3)C(C)=O)C2=O)cc1 (stereo unspecified)", "z-score": -0.739}
{"compound": "N#CCCN(C(=O)c1ccco1)c1ccccc1", "z-score": -1.06}
{"compound": "N#Cc1c(N2CCCCC2)nc(N2CCCCC2)c2c1CCN(Cc1ccccc1)C2", "z-score": -0.814}
{"compound": "CCC(=O)Nc1ccc(-c2nnc(-c3ccccc3)o2)cc1", "z-score": -0.514}
{"compound": "Cc1cc(OCC(=O)Nn2cnnc2)ccc1Br", "z-score": 0.431}
{"compound": "O=c1[nH]cnc2c1cnn2Cc1ccccc1", "z-score": -0.586}
{"compound": "Cc1cc(N2C(=O)C(=O)/C(=C(/O)c3ccc(F)cc3)C2c2cccc(Br)c2)no1 (stereo unspecified)", "z-score": 0.305}

====

protocol notes: inhibitors of mutant huntingtin aggregation, primary screen, imaging, exon1htt(103Q)mCFP cells, high-content imaging (AID 483);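 note: compound exposure lasted 3 days before fixation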
condition set: exon1htt(103Q)mCFP cell line, aggregate imaging, at 2 µM; stronger effect = higher value
Reported inhibition of aggregation by item:
attribute measured: inhibition of aggregation (%)

{"chem smiles": "Cc1oc(-c2ccccc2F)nc1CS(=O)(=O)CC(=O)NCCCN1CCc2ccccc2C1", "attribute measured": "inhibition of aggregation", "obs value": 16.1}
{"chem smiles": "Cc1nc(N2CCC(C)CC2)c2c(C)c(C(=O)O)sc2n1", "attribute measured": "inhibition of aggregation", "obs value": 31}
{"chem smiles": "CCOC(=O)N1CCN(CCC(=O)c2ccc(Cl)cc2)CC1", "attribute measured": "inhibition of aggregation", "obs value": -1.1}

====

protocol notes: inhibitors of poly I:C-induced TLR3 signaling, primary screen, cell-based, poly I:C stimulus, luciferase, 10K MLSCN set (AID 602277)
condition set: HEK293-TLR3 RL24 IRF3 luciferase reporter, at 10 µM, stronger effect = higher value

{"compound": "COc1ccc(S(=O)(=O)NC(C)C(=O)Nc2cccc(C(C)=O)c2)cc1 (configuration not stated)", "unit spec": "%", "inhibition": 15.3}
{"compound": "COc1ccc(C(=O)Oc2c(CN3CCOCC3)cc(Cl)c3cccnc23)cc1OC", "unit spec": "%", "inhibition": 30.9}
{"compound": "CN(C#N)c1nc(N2CCOCC2)nc(N2CCOCC2)n1", "unit spec": "%", "inhibition": 20}
{"compound": "CCOC(=O)c1c(NC(=O)COC(=O)c2c(C)noc2C)sc2c1CCC2", "unit spec": "%", "inhibition": 21.3}
{"compound": "CCc1nnc(NC(=O)c2cc3ccccc3oc2=O)s1", "unit spec": "%", "inhibition": -77.5}
{"compound": "CCOC(=O)c1ccccc1NC(=O)CSc1nccn1C", "unit spec": "%", "inhibition": 19.3}
{"compound": "O=c1c(-c2ccc(Br)cc2)coc2c(CN3CCOCC3)c(O)ccc12", "unit spec": "%", "inhibition": -17.1}

====

protocol notes: inhibitors of Sendai virus-induced IRF3 signaling, primary screen, TLR/RLR signaling modifier project, cell-based, Sendai virus stimulus, luciferase, 10K MLSCN set (AID 602276);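 note: firefly luciferase from ISG56 promoter only with Renilla not read in this screen; 0% = Sendai virus plus DMSO and 100% = medium plus DMSO without virus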
condition set: HEK293 RL24 IRF3 luciferase reporter, at 10 µM, stronger effect = higher value

{"compound": "CCOC(=O)c1ccc(NC(=O)CSCc2ccco2)cc1", "inhibition (%)": 1.64}
{"compound": "CCOC(=O)c1nnc(-c2ccccc2)o1", "inhibition (%)": 17.6}
{"compound": "Cc1nn(C)c(C)c1S(=O)(=O)N1CCCC(C(=O)N2CCN(c3ccc(Cl)cc3)CC2)C1 (stereo not drawn)", "inhibition (%)": 11.1}
{"compound": "CN1CCc2nc(SCCOc3ccccc3)c(C#N)cc2C1", "inhibition (%)": -2.8}
{"compound": "CCOC(=O)C1CCN(C(=O)C2(NC(=O)Nc3ccccc3Cl)CCCCC2)CC1", "inhibition (%)": 15}
{"compound": "COc1ccc2c(c1)cc(C(=O)O)n2C", "inhibition (%)": 11.6}
{"compound": "CCCOc1ccc(NC2=CC(=O)CC(C)(C)C2)cc1", "inhibition (%)": -1.23}
{"compound": "CCc1nnc(NC(=O)COC(=O)CN2C(=O)c3ccccc3C2=O)s1", "inhibition (%)": -1.09}
{"compound": "CCc1c(C(=O)NCCc2ccc(OC)c(OC)c2)[nH]c(C)c1C(C)=O", "inhibition (%)": 17.6}
{"compound": "Cc1ccn2cc(CCNC(=O)CC(C)(C)C)nc2c1", "inhibition (%)": 3.87}
{"compound": "Cc1ccc(-n2ncc3c(=O)n(CC(=O)NCc4ccco4)cnc32)cc1", "inhibition (%)": 21.7}
{"compound": "CCC1CCCCN1C(=O)CSc1nnc(-c2ccco2)o1 (stereo not drawn)", "inhibition (%)": -35.7}
{"compound": "Nc1nc(-n2cnnc2)nn1-c1ccccc1", "inhibition (%)": 4.93}
{"compound": "CSc1nc(N)nc(SCCS(=O)(=O)c2ccc(Cl)cc2)c1C#N", "inhibition (%)": 5.62}
{"compound": "COC(=O)c1cc(-c2ccccc2)sc1NC(=O)c1cc(C)on1", "inhibition (%)": -14.9}
{"compound": "COc1cc2c(cc1NC(=O)COC(=O)Cn1cnc3ccccc31)oc1ccccc12", "inhibition (%)": 20.9}
{"compound": "CC(=O)Nc1cc2c(nc1C)nc(C)n2Cc1ccc(Br)cc1", "inhibition (%)": 15}
{"compound": "CC1CCN(C(=O)CSc2nnc(-c3ccc(S(=O)(=O)N4CCOCC4)cc3)n2C)CC1", "inhibition (%)": 3.11}
{"compound": "CCN1C(=O)c2ccccc2S(=O)(=O)c2ccc(C(=O)NCc3cccnc3)cc21", "inhibition (%)": -13.6}
{"compound": "CCCC(=O)NCCc1cc2c(C)ccc(C)c2[nH]c1=O", "inhibition (%)": 9}
{"compound": "O=C(Nn1c(C2CC2)nc2ccccc2c1=O)c1ccco1", "inhibition (%)": 9.09}
{"compound": "O=C(c1ccco1)N1CCN(C(=O)c2sccc2-c2ccccc2)CC1", "inhibition (%)": -5.94}
{"compound": "CC(=O)c1cccc(-n2nnnc2SCC(=O)N2CCCC2)c1", "inhibition (%)": 4.48}

====

protocol notes: inhibitors of TNFa-induced NFkB p65 translocation, primary screen, imaging, HUVEC, MLSMR starter and 10KST1 sets (AID 438);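 note: compound added about 3h40 before a 20 min TNFalpha stimulation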
condition set: HUVEC TNFa-induced p65 nuclear translocation; measured here: nuclei count (cytotoxicity indicator), at 2.08 µM

{"compound": "O=c1ccc(S(=O)(=O)N2CCC(Cc3ccccc3)CC2)c[nH]1", "cell count": 451}
{"compound": "CCCC(=O)Nc1nn(CCC)c2nc3ccccc3cc12", "cell count": 632}
{"compound": "C=CCn1c(COc2ccc(Cl)cc2)nnc1SCC(=O)N1CC(=O)Nc2ccccc21", "cell count": 315}
{"compound": "O=S1(=O)CC(N2CCOCC2)c2ccccc21 (stereo not given)", "cell count": 644}
{"compound": "Cc1nn(-c2ccc(F)cc2)c2c1cc(C#N)c1nc3ccccc3n12", "cell count": 664}
{"compound": "COC(=O)CSc1cc(C)nc(NC(C)=O)n1", "cell count": 703}
{"compound": "COCC(=O)Nc1c(C(=O)Nc2ccccc2OC)oc2ccccc12", "cell count": 602}
{"compound": "Cc1cccc(NC(=O)CSc2nnc(-c3ccccc3C)o2)c1", "cell count": 414}
{"compound": "O=C(Nc1cccnc1)c1ccc2c(c1)OCO2", "cell count": 696}
{"compound": "c1ccc(C2(Cn3ccc4ccccc43)OCCO2)cc1", "cell count": 311}
{"compound": "O=C(NCC1CCCO1)c1ccc(C(=O)NCC2CCCO2)cc1 (stereo not given)", "cell count": 331}
{"compound": "O=C(O)c1ccc(C2CCCCC2)cn1", "cell count": 532}
{"compound": "C=CCn1c(=O)c2ccccc2n2c(SCC(=O)Nc3cc(C)on3)nnc12", "cell count": 469}
{"compound": "COc1ccc(OC)c(S(=O)(=O)NCCC2=CCCCC2)c1", "cell count": 677}
{"compound": "O=C(CSCc1ccc(F)cc1)NC1CCCC1", "cell count": 750}
